Quick reference: MIC of the listed items.
system: Burkholderia cenocepacia; test: Antibacterial activity against gram-negative Burkholderia cenocepacia BC240 by CLSI method; assay type: functional
Lab book: enter the figure in µg/mL, no units written.

Field: example entries. Status: answers known.
Compound	MIC, µg/mL
CN1CCCCCC1c1cc(O)c2c(c1Cl)C[C@H]1C[C@H]3[C@H](N(C)C)C(O)=C(C(N)=O)C(=O)[C@@]3(O)C(O)=C1C2=O (some centres not stated)	8
CN(C)[C@@H]1C(O)=C(C(N)=O)C(=O)[C@@]2(O)C(O)=C3C(=O)c4c(O)cc([C@@H]5CCCN5CC5CC5)c(C(F)(F)F)c4C[C@H]3C[C@@H]12	16
CN1CCCCC1c1cc(O)c2c(c1Cl)C[C@H]1C[C@H]3[C@H](N(C)C)C(O)=C(C(N)=O)C(=O)[C@@]3(O)C(O)=C1C2=O (some centres not stated)	8
CN(C)[C@@H]1C(O)=C(C(N)=O)C(=O)[C@@]2(O)C(O)=C3C(=O)c4c(O)cc([C@@H]5CCCN5)c(C(F)(F)F)c4C[C@H]3C[C@@H]12	8

If you can, please state the reported MIC value of CC1CCC(c2cc(O)c3c(c2C(F)(F)F)C[C@H]2C[C@H]4[C@H](N(C)C)C(O)=C(C(N)=O)C(=O)[C@@]4(O)C(O)=C2C3=O)N1 (some centres not stated) .
4

If you can, please state the reported MIC value of CN1CCCC1c1cc(O)c2c(c1Cl)C[C@H]1C[C@H]3[C@H](N(C)C)C(O)=C(C(N)=O)C(=O)[C@@]3(O)C(O)=C1C2=O (some centres not stated) .
8

If you can, please state the reported MIC value of CN(C)c1cc(NC(=O)CNC(C)(C)C)c(O)c2c1C[C@H]1C[C@H]3[C@H](N(C)C)C(O)=C(C(N)=O)C(=O)[C@@]3(O)C(O)=C1C2=O [TIGECYCLINE] .
16

If you can, please state the reported MIC value of CCN1CCC[C@H]1c1cc(O)c2c(c1C(F)(F)F)C[C@H]1C[C@H]3[C@H](N(C)C)C(O)=C(C(N)=O)C(=O)[C@@]3(O)C(O)=C1C2=O .
8

If you can, please state the reported MIC value of CN(C)[C@@H]1C(O)=C(C(N)=O)C(=O)[C@@]2(O)C(O)=C3C(=O)c4c(O)cc([C@H]5CCCN5)c(C(F)(F)F)c4C[C@H]3C[C@@H]12 .
8

If you can, please state the reported MIC value of CN(C)[C@@H]1C(O)=C(C(N)=O)C(=O)[C@@]2(O)C(O)=C3C(=O)c4c(O)cc(-c5ccncc5)c(Cl)c4C[C@H]3C[C@@H]12 .
8

If you can, please state the reported MIC value of CC1CCN(C)C1c1cc(O)c2c(c1C(F)(F)F)C[C@H]1C[C@H]3[C@H](N(C)C)C(O)=C(C(N)=O)C(=O)[C@@]3(O)C(O)=C1C2=O (some centres not stated) .
16
